Parameter IC50: see the listing below.
Molecular target: Soybean Lipoxygenase (SLOX) (Glycine max)
Sequence (P08170 1-839): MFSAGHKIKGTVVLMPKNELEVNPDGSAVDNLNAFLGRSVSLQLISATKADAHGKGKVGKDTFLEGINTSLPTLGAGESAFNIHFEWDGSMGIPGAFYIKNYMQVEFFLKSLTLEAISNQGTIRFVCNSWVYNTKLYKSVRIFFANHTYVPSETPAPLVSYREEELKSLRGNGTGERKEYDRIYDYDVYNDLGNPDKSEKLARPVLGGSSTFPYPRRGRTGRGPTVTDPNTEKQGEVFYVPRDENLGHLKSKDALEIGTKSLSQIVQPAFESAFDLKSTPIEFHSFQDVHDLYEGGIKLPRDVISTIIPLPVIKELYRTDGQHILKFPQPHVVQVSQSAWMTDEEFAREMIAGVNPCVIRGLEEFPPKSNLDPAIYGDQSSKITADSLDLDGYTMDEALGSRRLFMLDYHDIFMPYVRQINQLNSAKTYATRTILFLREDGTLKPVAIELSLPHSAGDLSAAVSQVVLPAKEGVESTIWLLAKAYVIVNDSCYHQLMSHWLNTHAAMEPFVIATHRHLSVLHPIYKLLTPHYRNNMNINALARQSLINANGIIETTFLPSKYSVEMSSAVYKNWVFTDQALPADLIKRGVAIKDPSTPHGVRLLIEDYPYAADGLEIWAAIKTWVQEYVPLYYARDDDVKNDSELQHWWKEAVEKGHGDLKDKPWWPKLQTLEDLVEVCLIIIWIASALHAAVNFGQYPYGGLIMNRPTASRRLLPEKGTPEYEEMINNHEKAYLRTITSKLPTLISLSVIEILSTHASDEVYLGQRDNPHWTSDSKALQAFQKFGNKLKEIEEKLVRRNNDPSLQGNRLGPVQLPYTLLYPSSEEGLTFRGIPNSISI
Assay: In vitro inhibition of soybean lipoxygenase (UV absorbance-based enzyme assay)
Assay type: biochemical
Conditions: soybean LOX, sodium linoleate substrate, pH 9
Respond with the bare value in µM.

QUERY SMILES	VALUE UNIT	IC50
Cn1c(=O)c2ncn(C/C=[N+](/C)[O-])c2n(C)c1=O	µM	33
C/[N+]([O-])=C/Cn1ccc(=O)[nH]c1=O	µM	62.5
Cc1cn(C/C=[N+](/C)[O-])c(=O)[nH]c1=O	µM	79
C/[N+]([O-])=C/Cn1cc(Br)c(=O)n(C/C=[N+](/C)[O-])c1=O	µM	57.5

We next turn to a different molecule, shown below.
[Q] Identify IC50 associated with the molecule `C/[N+]([O-])=C/Cn1cnc2c(N)ncnc21`
[A] 31

---

Parameter melting point: see the listing below.

Examples with their reported melting point follow.
QUERY SMILES	MEASUREMENT LABEL	RESULT
C/[N+]([O-])=C/Cn1cc(F)c(=O)[nH]c1=O	melting point	195 °C (dec.)
Cn1c(=O)c2ncn(C/C=[N+](/C)[O-])c2n(C)c1=O	melting point	192 °C (dec.)

We next turn to a different compound, shown below.
[Q] Identify melting point associated with the compound `Cc1cn(C/C=[N+](/C)[O-])c(=O)[nH]c1=O`
[A] 182 °C (dec.)

---

Test system: SH-SY5Y human neuroblastoma cells
Experiment: Anti-necrotic effect: LDH release after OGD (4 h) and 24 h OGR (IR)
Format: cell-based
Conditions: Homo sapiens, OGD 4 h + 24 h OGR (IR), read-out: Maximal Inhibition Mean±SEM (LDH release)
MEASUREMENT LABEL: Emax
Answer with the number, then the unit.

Examples with their reported Emax follow.
COMPOUND	Emax
C/[N+]([O-])=C/Cn1cc(Cl)c(=O)[nH]c1=O	98.6%
C/[N+]([O-])=C/Cn1ccc(=O)[nH]c1=O	100%
CC(=O)N[C@@H](CS)C(=O)O [NAC, N-acetyl-L-cysteine, reference compound]	99.1%
C/[N+]([O-])=C/Cn1cc(Br)c(=O)[nH]c1=O	120%

[Q] Identify Emax associated with the compound `C/[N+]([O-])=C/Cn1cnc2c(N)ncnc21`
[A] 129%

[Q] Identify Emax associated with the compound `C/[N+]([O-])=C/Cn1cc(F)c(=O)[nH]c1=O`
[A] 148%

[Q] Identify Emax associated with the compound `C/[N+]([O-])=C/Cn1ccc(=O)n(C/C=[N+](/C)[O-])c1=O`
[A] 126%

[Q] Identify Emax associated with the compound `C/[N+]([O-])=C/Cn1cc(Br)c(=O)n(C/C=[N+](/C)[O-])c1=O`
[A] 121%

[Q] Identify Emax associated with the compound `Cc1cn(C/C=[N+](/C)[O-])c(=O)[nH]c1=O`
[A] 122%

---

Assay: ABTS radical cation decolorization assay
Conditions: tested at 100 µM
Protocol: Approximately 10 µL of the tested compounds in DMSO (100 µM final concentration) were mixed with 200 µL of ABTS∙^+ (100 mM) and 790 µL absolute ethanol. The absorbance value was recorded 1 min after mixing at 734 nm and compared to Trolox.
MEASUREMENT LABEL: ABTS+ (%)
Respond with the bare value in %.

COMPOUND	VALUE UNIT	ABTS+ (%)
C/[N+]([O-])=C/Cn1cc(Br)c(=O)[nH]c1=O	%	12
C/[N+]([O-])=C/Cn1cc(Cl)c(=O)[nH]c1=O	%	19
C/[N+]([O-])=C/Cn1cc(Br)c(=O)n(C/C=[N+](/C)[O-])c1=O	%	75
C/[N+]([O-])=C/Cn1ccc(=O)[nH]c1=O	%	19
C/[N+]([O-])=C/Cn1cc(F)c(=O)[nH]c1=O	%	5

[Q] Identify ABTS+ (%) associated with the compound `C/[N+]([O-])=C/Cn1cnc2c(N)ncnc21`
[A] 6

[Q] Identify ABTS+ (%) associated with the compound `Cn1c(=O)c2ncn(C/C=[N+](/C)[O-])c2n(C)c1=O`
[A] 8

---

Tested on: human neuroblastoma SH-SY5Y cells
Assay: Superoxide radical production (DHE fluorescence) after OGD and 3 h OGR (IR)
Assay type: cell-based
Conditions: OGD + 3 h OGR (IR), compounds 0.1 to 1000 μM, read-out: Antioxidant Activity EC50 ± SEM (superoxide production)
MEASUREMENT LABEL: pEC50
Please keep in mind that pEC50 is minus log10 of the molar concentration; only the number is needed.

[Q] Identify pEC50 associated with the compound CC(C)(C)[N+]([O-])=Cc1ccccc1 [PBN, α-phenyl-N-tert-butylnitrone, reference compound]
[A] 5.23

---

Parameter melting point: see the listing below.

QUERY SMILES	melting point
C/[N+]([O-])=C/Cn1cnc2c(N)ncnc21	211 °C (dec.)

[Q] Identify melting point associated with the molecule `C/[N+]([O-])=C/Cn1cc(Cl)c(=O)[nH]c1=O`
[A] 180 °C (dec.)

[Q] Identify melting point associated with the molecule `C/[N+]([O-])=C/Cn1cc(Br)c(=O)[nH]c1=O`
[A] 180 °C (dec.)

---

Test: ABTS radical cation decolorization assay
Conditions: tested at 100 µM
Parameter ABTS+ (%): see the listing below.
Respond with the bare value in %.

Examples with their reported ABTS+ (%) follow.
COMPOUND	VALUE UNIT	ABTS+ (%)
C/[N+]([O-])=C/Cn1ccc(=O)n(C/C=[N+](/C)[O-])c1=O	%	50
CC(C)(C)[N+]([O-])=Cc1ccccc1 [PBN, α-phenyl-N-tert-butylnitrone, reference compound]	%	5
Cc1c(C)c2c(c(C)c1O)CCC(C)(C(=O)O)O2 (stereo not shown) [Trolox, reference compound]	%	91

[Q] Identify ABTS+ (%) associated with the compound `Cc1cn(C/C=[N+](/C)[O-])c(=O)[nH]c1=O`
[A] 14

Taken from paper PMC8955307.
